Listed here: items and their measured Adverse Events (number).
Tested on: aortic allograft (plaque growth)
Assay: Mouse aortic allograft transplant model
Details: 15 μg/mouse
Where no end group is shown, it is not given here.
Write the number on its own, no unit after it.

Record excerpt, results attached:
GTTASSDTAITLIPR [S-7] | 0
EVNEEGSEAAAVSGM [S-6] | 6
IPRNAL [S-1, IPRNAL] | 1
ISRMAV [S-2, ISRMAV] | 1
MAVLYPQVIVDHPFFFLIRNR [S-8] | 0
IAISRM [S-4, IAISRM] | 0

Now examine the next entry.
Task item: Need Adverse Events (number) of TAIVANKPF [S-5] , thanks.
Reply: 0
